assay: Rat pharmacokinetics, i.v. bolus; assay type: in vivo, Sprague-Dawley rats; settings: rat, in vivo, iv, 15 mg/kg, female Sprague-Dawley rats, single 15 mg/kg slow i.v. bolus, plasma, LC-MS/MS, noncompartmental, n = 3 to 5/dose
Starred links: 1 amine or outer side, 2 acyl side, 3 side chain; linkers in the order of their positions; H or OH if unused. Positions of bridges follow the written chain, without caps; N, C: chain ends. Non-standard residues stand in square brackets, D forms with d. Residues, ends and D or L forms follow the SMILES beside them. *: point of attachment. Orn(4R-OH,5R-OCH2CH2NMe3+) = C[N+](C)(C)CCO[C@@H](N[*:3])[C@H](O)C[C@H](N[*:1])C(=O)[*:2]; pTerphenylCO(4''-OnC5H11) = CCCCCOc1ccc(-c2ccc(-c3ccc(C(=O)*)cc3)cc2)cc1; hTyr(3S-OH,4S-OH) = N[C@H](C(=O)O)[C@H](O)[C@@H](O)c1ccc(O)cc1; Pro(3S-OH,4S-Me) = C[C@H]1CN[C@H](C(=O)O)[C@H]1O; Hyp = O=C(O)[C@@H]1C[C@@H](O)CN1
Measurement type: Cmax (ng/mL)
Write down the numeric answer in ng/mL and omit the unit.

// query If you can, please state the reported Cmax value of CCCCCOc1ccc(-c2ccc(-c3ccc(C(=O)N[C@H]4C[C@@H](O)[C@@H](OCC[N+](C)(C)C)NC(=O)[C@@H]5[C@@H](O)[C@@H](C)CN5C(=O)[C@H]([C@@H](C)O)NC(=O)[C@H]([C@H](O)[C@@H](O)c5ccc(O)cc5)NC(=O)[C@@H]5C[C@@H](O)CN5C(=O)[C@H]([C@@H](C)O)NC4=O)cc3)cc2)cc1 [CD101] ({pTerphenylCO(4''-OnC5H11)}-[Orn(4R-OH,5R-OCH2CH2NMe3+)]T[Hyp][hTyr(3S-OH,4S-OH)]T[Pro(3S-OH,4S-Me)]; lactam 1-C) .
// result 27600

---

test: Mouse pharmacokinetics, i.p. injection; details: in vivo, ip, female ICR (CD-1) mice, single 16 mg/kg i.p., plasma, LC-MS/MS, noncompartmental from mean profile, n = 3/time point
Starred links: 1 amine or outer side, 2 acyl side, 3 side chain; linkers in the order of their positions; H or OH if unused. Positions of bridges follow the written chain, without caps; N, C: chain ends. Non-standard residues stand in square brackets, D forms with d. Residues, ends and D or L forms follow the SMILES beside them. *: point of attachment. Orn(4R-OH,5R-OCH2CH2NMe3+) = C[N+](C)(C)CCO[C@@H](N[*:3])[C@H](O)C[C@H](N[*:1])C(=O)[*:2]; pTerphenylCO(4''-OnC5H11) = CCCCCOc1ccc(-c2ccc(-c3ccc(C(=O)*)cc3)cc2)cc1; hTyr(3S-OH,4S-OH) = N[C@H](C(=O)O)[C@H](O)[C@@H](O)c1ccc(O)cc1; Pro(3S-OH,4S-Me) = C[C@H]1CN[C@H](C(=O)O)[C@H]1O; Hyp = O=C(O)[C@@H]1C[C@@H](O)CN1
Measurement type: Tmax (h)
Form entry: value (h) — number only.

// query Given the entry CCCCCOc1ccc(-c2ccc(-c3ccc(C(=O)N[C@H]4C[C@@H](O)[C@@H](OCC[N+](C)(C)C)NC(=O)[C@@H]5[C@@H](O)[C@@H](C)CN5C(=O)[C@H]([C@@H](C)O)NC(=O)[C@H]([C@H](O)[C@@H](O)c5ccc(O)cc5)NC(=O)[C@@H]5C[C@@H](O)CN5C(=O)[C@H]([C@@H](C)O)NC4=O)cc3)cc2)cc1 [CD101] ({pTerphenylCO(4''-OnC5H11)}-[Orn(4R-OH,5R-OCH2CH2NMe3+)]T[Hyp][hTyr(3S-OH,4S-OH)]T[Pro(3S-OH,4S-Me)]; lactam 1-C) , report its measured Tmax.
// result 1.67
